# Measured On: PKC-theta (Homo sapiens)
# Construct: His-tag; made in house; host or cells: baculovirus-infected Sf9 cells
# Sequence (Q04759 whole entry): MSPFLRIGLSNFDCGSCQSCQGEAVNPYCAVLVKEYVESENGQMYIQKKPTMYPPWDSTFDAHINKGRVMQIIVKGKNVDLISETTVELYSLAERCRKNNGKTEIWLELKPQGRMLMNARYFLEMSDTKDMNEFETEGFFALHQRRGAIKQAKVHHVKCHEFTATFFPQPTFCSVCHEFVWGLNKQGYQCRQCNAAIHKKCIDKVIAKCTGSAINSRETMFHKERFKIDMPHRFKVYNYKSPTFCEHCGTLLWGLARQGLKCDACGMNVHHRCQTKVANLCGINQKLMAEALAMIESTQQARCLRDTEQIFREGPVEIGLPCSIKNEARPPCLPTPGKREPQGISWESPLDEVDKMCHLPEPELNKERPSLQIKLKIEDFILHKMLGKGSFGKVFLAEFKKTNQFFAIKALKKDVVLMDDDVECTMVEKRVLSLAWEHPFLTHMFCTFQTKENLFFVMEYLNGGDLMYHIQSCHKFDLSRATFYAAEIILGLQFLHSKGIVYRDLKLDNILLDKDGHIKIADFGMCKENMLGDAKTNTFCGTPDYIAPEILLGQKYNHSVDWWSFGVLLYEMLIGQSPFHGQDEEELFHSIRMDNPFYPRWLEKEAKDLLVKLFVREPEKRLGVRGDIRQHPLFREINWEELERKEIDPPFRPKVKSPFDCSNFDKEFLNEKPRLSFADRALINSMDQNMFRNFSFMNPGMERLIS
# Protocol Summary: In vitro kinase assay: peptide phosphorylation by PKC-theta
# Assay type: biochemical
# Test Parameters: normalized to best substrate
Category key, based on recorded PKC theta phosphorylation: range 1 (below 20%), range 2 (20% to below 30%), range 3 (30% or more)

Answered examples (5):
>>> class("110 (EGGDRRASGRRK) [compound 110]")
"range 2"
>>> class("108 (KATTKKRTLRKNDRK) [compound 108]")
"range 3"
>>> class("113 (GENVLKKSMKSRVKG) [compound 113]")
"range 1"
>>> class("87 (RQGKRKTSIKRDTVNPL) [compound 87]")
"range 3"
>>> class("82 (PRLIRRGSKKRPAR) [compound 82]")
"range 3"

Asked: State the class of the substance shown: 109 (KEVVRTDSLKGRRGR) [compound 109]
Given back: range 1

Asked: State the class of the substance shown: 79 (NRKKKRTSFKRKA) [compound 79]
Given back: range 3

Asked: State the class of the substance shown: 99 (AGWRKKTSFRKPKED) [compound 99]
Given back: range 2

Asked: State the class of the substance shown: 106 (EILSRRPSYRKILND) [compound 106]
Given back: range 1

Asked: State the class of the substance shown: 104 (EKIKRSSLKKVDSLKK) [compound 104]
Given back: range 2

Asked: State the class of the substance shown: 85 (RFARKGSLRQKNV) [compound 85]
Given back: range 3

Asked: State the class of the substance shown: 112 (KRPGKKGSNKRPGKR) [compound 112]
Given back: range 1

---

# Measured On: PKC-alpha (Homo sapiens)
# Construct: purchased Calbiochem
# Protocol Summary: In vitro kinase assay: peptide phosphorylation by PKC-alpha
# Type: biochemical
# Test Parameters: peptide concentration 1 uM
# Description: Catalytically active preparations of the kinases of interest were either purchased or prepared. […] The conditions of the kinase assay and the amount of active kinase used varied with the kinase and with the accuracy needed. […] The choice of kinase buffer depended on the kinase being analyzed. […]
Listing of entries alongside the reported phosphorylation by PKC alpha.
// return a plain number; no unit text

Solved entries:
>>> observed("126 (KAIKAIEGGQKFARKSTRRS) [compound 126]")
36
>>> observed("142 (ERHVAQKKSRLRRRASQLKI) [compound 142]")
16

Per the record, 145 (ISDFGLAKKLAVGRHSFSRR) [compound 145] has phosphorylation by PKC alpha of 21

Per the record, 117 (NRKKKRTSFKRKA) [compound 117] has phosphorylation by PKC alpha of 40

---

# Measured On: PKC-theta (Homo sapiens)
# Construct: His-tag; made in house; host or cells: baculovirus-infected Sf9 cells
# Protocol Summary: In vitro kinase assay: peptide phosphorylation by PKC-theta
# Assay type: biochemical
# Test Parameters: peptide concentration 10 uM
Category key, based on recorded phosphorylation by PKC theta: class 0: < 20; class 1: ≥ 20 and < 40; class 2: ≥ 40

>>> class("143 (VRYTPYTISPYNRKGSFRKQ) [compound 143]")
"class 1"

Asked: State the class of the substance shown: 151 (PQNSLKASNRKKKRTSFKRK) [compound 151]
Given back: class 0

Asked: State the class of the substance shown: 150 (VDPFYEMLAARKKRISVKKK) [compound 150]
Given back: class 1

Asked: State the class of the substance shown: 147 (RDIRQSPKRGFLRSASLGRR) [compound 147]
Given back: class 2

Asked: State the class of the substance shown: 156 (SAQITIPKDGQKRKKSLRKK) [compound 156]
Given back: class 1

Asked: State the class of the substance shown: 129 (VQRHRSMRKTFARYLSFRRD) [compound 129]
Given back: class 1

---

# Measured On: PKC-theta (Homo sapiens)
# Construct: His-tag; made in house; host or cells: baculovirus-infected Sf9 cells
# Protocol Summary: In vitro kinase assay: peptide phosphorylation by PKC-theta
# Format: biochemical
# Test Parameters: peptide concentration 1 uM
Listing of entries alongside the reported phosphorylation by PKC theta.
// return a plain number; no unit text

>>> observed("159 (LYARLARAYRRSQRASFKRA) [compound 159]")
21
>>> observed("132 (GFLNEPLSSKSQRRKSLKLK) [compound 132]")
34
>>> observed("143 (VRYTPYTISPYNRKGSFRKQ) [compound 143]")
25
>>> observed("122 (RAITSTLASSFKRRR) [compound 122]")
66

Moving on to the next substance.
Per the record, 130 (EYLERRASRRRAV) [compound 130] has phosphorylation by PKC theta of 38

---

# Measured On: PKC-epsilon (Homo sapiens, UniProt Q02156)
# Construct: purchased Calbiochem
# Sequence (Q02156 1-737): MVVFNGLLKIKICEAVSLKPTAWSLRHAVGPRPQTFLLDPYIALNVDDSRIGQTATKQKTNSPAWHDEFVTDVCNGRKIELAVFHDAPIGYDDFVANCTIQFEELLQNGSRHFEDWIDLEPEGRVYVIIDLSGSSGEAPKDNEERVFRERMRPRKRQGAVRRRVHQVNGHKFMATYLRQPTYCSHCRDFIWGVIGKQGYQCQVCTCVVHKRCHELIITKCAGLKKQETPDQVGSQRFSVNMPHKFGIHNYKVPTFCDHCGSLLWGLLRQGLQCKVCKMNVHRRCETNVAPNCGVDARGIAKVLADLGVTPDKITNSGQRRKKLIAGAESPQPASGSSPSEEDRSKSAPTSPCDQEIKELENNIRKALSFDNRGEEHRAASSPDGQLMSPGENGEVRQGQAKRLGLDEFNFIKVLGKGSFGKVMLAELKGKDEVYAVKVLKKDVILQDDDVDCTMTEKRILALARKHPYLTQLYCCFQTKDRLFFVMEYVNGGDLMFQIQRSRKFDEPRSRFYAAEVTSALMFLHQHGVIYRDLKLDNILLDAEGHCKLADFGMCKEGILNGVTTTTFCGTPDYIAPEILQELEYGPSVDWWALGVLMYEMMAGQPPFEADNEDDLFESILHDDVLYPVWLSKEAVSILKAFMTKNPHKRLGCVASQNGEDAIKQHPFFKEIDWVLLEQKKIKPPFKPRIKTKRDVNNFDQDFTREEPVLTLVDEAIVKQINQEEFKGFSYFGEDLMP
# Protocol Summary: In vitro kinase assay: peptide phosphorylation by PKC-epsilon
# Format: biochemical
# Test Parameters: normalized to best substrate
# Source text: Catalytically active preparations of the kinases of interest were either purchased or prepared. […] The conditions of the kinase assay and the amount of active kinase used varied with the kinase and with the accuracy needed. […] The choice of kinase buffer depended on the kinase being analyzed. […]
Endpoint: PKC-epsilon phosphorylation (%)
The answer is to be given in %; state only the numeric part.

Solved entries:
>>> observed("87 (RQGKRKTSIKRDTVNPL) [compound 87]")
31
>>> observed("90 (AQIVKRASLKRGKQ) [compound 90]")
49

Per the record, 109 (KEVVRTDSLKGRRGR) [compound 109] has PKC-epsilon phosphorylation of 26

Per the record, 84 (QKKSRLRRRASQLKI) [compound 84] has PKC-epsilon phosphorylation of 52

Per the record, 79 (NRKKKRTSFKRKA) [compound 79] has PKC-epsilon phosphorylation of 92

Per the record, 107 (QKRHARVTVKYDRRE) [compound 107] has PKC-epsilon phosphorylation of 7

Per the record, 106 (EILSRRPSYRKILND) [compound 106] has PKC-epsilon phosphorylation of 31

Per the record, 81 (KRERKTSSKSSVRKRR) [compound 81] has PKC-epsilon phosphorylation of 59

Per the record, 105 (ALRRPSLRREADD) [compound 105] has PKC-epsilon phosphorylation of 29

Per the record, 80 (KKKKKRFSFKKSFKL) [compound 80] has PKC-epsilon phosphorylation of 71

Per the record, 111 (KKKRFSFKKSFKLSGFSFKK) [compound 111] has PKC-epsilon phosphorylation of 12

Per the record, 110 (EGGDRRASGRRK) [compound 110] has PKC-epsilon phosphorylation of 4

Per the record, 98 (AGPLRKSSLKKGGRL) [compound 98] has PKC-epsilon phosphorylation of 34

Per the record, 89 (EYLERRASRRRAV) [compound 89] has PKC-epsilon phosphorylation of 45

Per the record, 100 (WKGKRRSKARKKRK) [compound 100] has PKC-epsilon phosphorylation of 13

Per the record, 112 (KRPGKKGSNKRPGKR) [compound 112] has PKC-epsilon phosphorylation of 11

Per the record, 102 (AGSFKRNSIKKIV) [compound 102] has PKC-epsilon phosphorylation of 14

Per the record, 86 (RQRKRKLSFRRRTDKD) [compound 86] has PKC-epsilon phosphorylation of 63

Per the record, 101 (GAPPRRSSIRNAH) [compound 101] has PKC-epsilon phosphorylation of 19

Per the record, 108 (KATTKKRTLRKNDRK) [compound 108] has PKC-epsilon phosphorylation of 8

Per the record, 95 (KKKFRTPSFLKKSKK) [compound 95] has PKC-epsilon phosphorylation of 31

Per the record, 104 (EKIKRSSLKKVDSLKK) [compound 104] has PKC-epsilon phosphorylation of 17

Per the record, 83 (RKIPKRPGSVHRTPSRQ) [compound 83] has PKC-epsilon phosphorylation of 47

Per the record, 77 (KKKKRASFKRKSSKKG) [compound 77] has PKC-epsilon phosphorylation of 71

Per the record, 103 (LLKKRDSFRTPRDSKLE) [compound 103] has PKC-epsilon phosphorylation of 21

Per the record, 78 (KFARKSTRRSIRLPE) [compound 78] has PKC-epsilon phosphorylation of 84
